# Final purity listing for each entry below
Assay type: physicochemical
Settings: 1.2 million lux-hrs
// return just the number, without any unit appended

Worked set:
COC[C@@]1(O)CC[C@@]2(C)[C@@H](CC[C@@H]3[C@@H]2CC[C@]2(C)[C@@H](C(=O)Cn4ccnc4)CC[C@@H]32)C1.O=C(O)C(=O)O [Oxalate (Form A)]    98.2
COCC1(O)CCC2(C)C(CCC3C2CCC2(C)C(C(=O)Cn4ccnc4)CCC32)C1.O=C(O)c1cc(O)ccc1O (stereo not drawn) [Gentisate salt (Form A)]    96.0
COCC1(O)CCC2(C)C(CCC3C2CCC2(C)C(C(=O)Cn4ccnc4)CCC32)C1.O=C(O)CC(O)C(=O)O [L-Malate (Form A)]    99.3
COCC1(O)CCC2(C)C(CCC3C2CCC2(C)C(C(=O)Cn4ccnc4)CCC32)C1.O=C(O)C(Cl)Cl (stereo not drawn) [Dichloroacetate (Form A)]    96.4
COCC1(O)CCC2(C)C(CCC3C2CCC2(C)C(C(=O)Cn4ccnc4)CCC32)C1.Nc1ccc(C(=O)O)c(O)c1 (stereo not drawn) [P-aminosalicylate (Form A)]    95.7

Next molecule, please.
q: Value lookup for Final purity; key = COCC1(O)CCC2(C)C(CCC3C2CCC2(C)C(C(=O)Cn4ccnc4)CCC32)C1.Cc1ccc(S(=O)(=O)O)cc1 (stereo not drawn) [Tosylate (Form A)]
a: 99.0

====

Assay type: physicochemical
Conditions: Dark control
endpoint: Final purity
// return just the number, without any unit appended

COCC1(O)CCC2(C)C(CCC3C2CCC2(C)C(C(=O)Cn4ccnc4)CCC32)C1.O=CC(O)C(O)C(O)C(O)C(=O)O (stereo not drawn) [Glucuronate (Form A)]    97.5
COCC1(O)CCC2(C)C(CCC3C2CCC2(C)C(C(=O)Cn4ccnc4)CCC32)C1.O=C(O)c1cc(O)ccc1O (stereo not drawn) [Gentisate salt (Form A)]    97.6

q: Value lookup for Final purity; key = Br.COCC1(O)CCC2(C)C(CCC3C2CCC2(C)C(C(=O)Cn4ccnc4)CCC32)C1 (stereo not drawn) [Compound 1 HBr (Form B)]
a: 97.8

====

Type: physicochemical
Settings: 1.2 million lux-hrs
endpoint: Final purity

Worked set:
COC[C@@]1(O)CC[C@@]2(C)[C@@H](CC[C@@H]3[C@@H]2CC[C@]2(C)[C@@H](C(=O)Cn4ccnc4)CC[C@@H]32)C1.O=S(=O)(O)c1ccccc1 [Besylate (Form A)]    98.7
COC[C@@]1(O)CC[C@@]2(C)[C@@H](CC[C@@H]3[C@@H]2CC[C@]2(C)[C@@H](C(=O)Cn4ccnc4)CC[C@@H]32)C1.O=C(O)CC(O)(CC(=O)O)C(=O)O [Compound 1 Citrate (Form A)]    99.5
COCC1(O)CCC2(C)C(CCC3C2CCC2(C)C(C(=O)Cn4ccnc4)CCC32)C1.O=CC(O)C(O)C(O)C(O)C(=O)O (centres unmarked) [Glucuronate (Form A)]    97.5
COC[C@@]1(O)CC[C@@]2(C)[C@@H](CC[C@@H]3[C@@H]2CC[C@]2(C)[C@@H](C(=O)Cn4ccnc4)CC[C@@H]32)C1.O=P(O)(O)O [Phosphate (Form A)]    98.9
COCC1(O)CCC2(C)C(CCC3C2CCC2(C)C(C(=O)Cn4ccnc4)CCC32)C1.O=S(=O)(O)CCO (centres unmarked) [Isethionate (Form A)]    98.9
COC[C@@]1(O)CC[C@@]2(C)[C@@H](CC[C@@H]3[C@@H]2CC[C@]2(C)[C@@H](C(=O)Cn4ccnc4)CC[C@@H]32)C1.O=C(O)C[C@H](O)C(=O)O [L-Malate (Form B)]    97.6

q: Value lookup for Final purity; key = COCC1(O)CCC2(C)C(CCC3C2CCC2(C)C(C(=O)Cn4ccnc4)CCC32)C1.Cl (centres unmarked) [Hydrochloride (Form B)]
a: 98.2

q: Now the compound COCC1(O)CCC2(C)C(CCC3C2CCC2(C)C(C(=O)Cn4ccnc4)CCC32)C1.O=C(O)C(O)C(O)C(=O)O (stereo not drawn) [L(+)-Tartrate (Form A)]
a: 99.4

q: Now the compound COC[C@@]1(O)CC[C@@]2(C)[C@@H](CC[C@@H]3[C@@H]2CC[C@]2(C)[C@@H](C(=O)Cn4ccnc4)CC[C@@H]32)C1.O=S(=O)(O)O [Sulfate (Form A)]
a: 97.1

q: Now the compound COC[C@@]1(O)CC[C@@]2(C)[C@@H](CC[C@@H]3[C@@H]2CC[C@]2(C)[C@@H](C(=O)Cn4ccnc4)CC[C@@H]32)C1.O=C(O)CC(=O)O [Malonate (Form A)]
a: 98.2

q: Now the compound COC[C@@]1(O)CC[C@@]2(C)[C@@H](CC[C@@H]3[C@@H]2CC[C@]2(C)[C@@H](C(=O)Cn4ccnc4)CC[C@@H]32)C1.Cl [Hydrochloride (Form A)]
a: 99.5

====

Assay type: physicochemical
Details: 1.2 million lux-hrs
endpoint: XRPD patterns

COCC1(O)CCC2(C)C(CCC3C2CCC2(C)C(C(=O)Cn4ccnc4)CCC32)C1.Nc1ccc(C(=O)O)c(O)c1 (stereo not shown) [P-aminosalicylate (Form A)]    Form A
COCC1(O)CCC2(C)C(CCC3C2CCC2(C)C(C(=O)Cn4ccnc4)CCC32)C1.O=C(O)c1ccc2ccccc2c1O (stereo not shown) [1-hydroxy-2-napthoate (Form A)]    Form A
COC[C@@]1(O)CC[C@@]2(C)[C@@H](CC[C@@H]3[C@@H]2CC[C@]2(C)[C@@H](C(=O)Cn4ccnc4)CC[C@@H]32)C1.O=C(O)C(=O)O [Oxalate (Form A)]    Form A
COCC1(O)CCC2(C)C(CCC3C2CCC2(C)C(C(=O)Cn4ccnc4)CCC32)C1.Cl (stereo not shown) [Hydrochloride (Form B)]    Form B
COC[C@@]1(O)CC[C@@]2(C)[C@@H](CC[C@@H]3[C@@H]2CC[C@]2(C)[C@@H](C(=O)Cn4ccnc4)CC[C@@H]32)C1.O=C(O)C[C@H](O)C(=O)O [L-Malate (Form B)]    Form B

Next compound, please.
q: Value lookup for XRPD patterns; key = COC[C@@]1(O)CC[C@@]2(C)[C@@H](CC[C@@H]3[C@@H]2CC[C@]2(C)[C@@H](C(=O)Cn4ccnc4)CC[C@@H]32)C1.O=S(=O)(O)O [Sulfate (Form A)]
a: Form A

====

# Final purity listing for each entry below
Assay type: physicochemical
Conditions: 40° C./75% RH, 1 w
// return just the number, without any unit appended

Worked set:
COC[C@@]1(O)CC[C@@]2(C)[C@@H](CC[C@@H]3[C@@H]2CC[C@]2(C)[C@@H](C(=O)Cn4ccnc4)CC[C@@H]32)C1.O=C(O)CC(=O)O [Malonate (Form A)]    98.5
COC[C@@]1(O)CC[C@@]2(C)[C@@H](CC[C@@H]3[C@@H]2CC[C@]2(C)[C@@H](C(=O)Cn4ccnc4)CC[C@@H]32)C1.O=C(O)C[C@H](O)C(=O)O [L-Malate (Form B)]    98.5
COC[C@@]1(O)CC[C@@]2(C)[C@@H](CC[C@@H]3[C@@H]2CC[C@]2(C)[C@@H](C(=O)Cn4ccnc4)CC[C@@H]32)C1.O=C(O)CC(O)(CC(=O)O)C(=O)O [Compound 1 Citrate (Form A)]    99.4
COC[C@@]1(O)CC[C@@]2(C)[C@@H](CC[C@@H]3[C@@H]2CC[C@]2(C)[C@@H](C(=O)Cn4ccnc4)CC[C@@H]32)C1.O=C1O[C@H]([C@@H](O)CO)C(O)=C1O [Ascorbate (Form A)]    96.4
COCC1(O)CCC2(C)C(CCC3C2CCC2(C)C(C(=O)Cn4ccnc4)CCC32)C1.Cl (stereo not shown) [Hydrochloride (Form B)]    100.0

q: Value lookup for Final purity; key = COCC1(O)CCC2(C)C(CCC3C2CCC2(C)C(C(=O)Cn4ccnc4)CCC32)C1.O=C(O)c1ccc2ccccc2c1O (stereo not shown) [1-hydroxy-2-napthoate (Form A)]
a: 92.64

q: Now the molecule COCC1(O)CCC2(C)C(CCC3C2CCC2(C)C(C(=O)Cn4ccnc4)CCC32)C1.Cl (stereo not shown) [Hydrochloride (Form C)]
a: 100.0

q: Now the molecule COCC1(O)CCC2(C)C(CCC3C2CCC2(C)C(C(=O)Cn4ccnc4)CCC32)C1.CS(=O)(=O)O (stereo not shown) [Mesylate (Form A)]
a: 99.4

q: Now the molecule COCC1(O)CCC2(C)C(CCC3C2CCC2(C)C(C(=O)Cn4ccnc4)CCC32)C1.Nc1ccc(C(=O)O)c(O)c1 (stereo not shown) [P-aminosalicylate (Form A)]
a: 97.0

====

Assay type: physicochemical
Conditions: 40° C./75% RH, 1 w
endpoint: XRPD pattern

COC[C@@]1(O)CC[C@@]2(C)[C@@H](CC[C@@H]3[C@@H]2CC[C@]2(C)[C@@H](C(=O)Cn4ccnc4)CC[C@@H]32)C1.O=C(O)CC(O)(CC(=O)O)C(=O)O [Compound 1 Citrate (Form B)]    Form B
Br.COCC1(O)CCC2(C)C(CCC3C2CCC2(C)C(C(=O)Cn4ccnc4)CCC32)C1 (stereo not shown) [Compound 1 HBr (Form B)]    Form B
